- Test system: Staphylococcus aureus
- test summary: Antimicrobial activity against Staphylococcus aureus assessed as zone of inhibition at 75 ug/well after 24 hrs by agar well diffusion method
- Format: functional
- test parameters: read-out: DIZ
Let's look at some compounds and their measured zone of inhibition at 75 µg/disc.
readout name: zone of inhibition at 75 µg/disc (mm)

> print(dat)
                               input.smiles  readout.unit  observed.result
1  Cc1ccc(-c2onc(-c3ccccc3)c2S(=O)(=O)NC(=O)c2ccc(Cl)s2)cc1            mm               17
2  O=C(NS(=O)(=O)c1c(-c2ccccc2)noc1-c1ccc([N+](=O)[O-])cc1)c1cccs1            mm               28
3   O=C(NS(=O)(=O)/C=C/c1ccccc1)c1ccc(Cl)s1            mm               19

###

Each entry below lists one item and its recorded zone of inhibition at 100 µg/disc value.
- Tested on: Pseudomonas aeruginosa
- test summary: Antimicrobial activity against Pseudomonas aeruginosa assessed as zone of inhibition at 100 ug/well after 24 hrs by agar well diffusion method
- Assay type: functional
- test parameters: read-out: DIZ
readout name: zone of inhibition at 100 µg/disc (mm)

> print(dat)
                               input.smiles  observed.result
1  O=C(NS(=O)(=O)c1c(-c2ccccc2)noc1-c1ccccc1)c1ccc(Cl)s1               21
2  Cc1ccc(-c2onc(-c3ccccc3)c2S(=O)(=O)NC(=O)c2ccc(Cl)s2)cc1               14
3  O=C(NS(=O)(=O)c1c(-c2ccccc2)nn(-c2ccccc2)c1-c1ccc([N+](=O)[O-])cc1)c1cccs1               24
4  O=C(NS(=O)(=O)/C=C/c1ccc([N+](=O)[O-])cc1)c1cccs1               21
5  Cc1ccc(-c2c(S(=O)(=O)NC(=O)c3cccs3)c(-c3ccccc3)nn2-c2ccccc2)cc1               11

###

- Test system: Penicillium chrysogenum
- test summary: Fungicidal activity against Penicillium chrysogenum incubated for 48 hrs followed by replating on PDA and incubated for 48 hrs by broth dilution test
- Assay type: functional
MFC by entry:
readout name: MFC

> print(dat)
                               input.smiles  readout.name  observed.result
1  O=C(NS(=O)(=O)/C=C/c1ccc([N+](=O)[O-])cc1)c1ccc(Cl)s1           MFC      > 200 µg/mL
2  O=C(NS(=O)(=O)c1c(-c2ccccc2)nn(-c2ccccc2)c1-c1ccc([N+](=O)[O-])cc1)c1cccs1           MFC      > 200 µg/mL
3  O=C(NS(=O)(=O)/C=C/c1ccc([N+](=O)[O-])cc1)c1cccs1           MFC      > 200 µg/mL

Cited source for all entries: ChEMBL document CHEMBL4251595
